Test system: E. coli
Experiment: Antibiogram of ESKAPE pathogens
Format: cell-based
Details: Escherichia coli; strain DSM8695; column assigned by order in flattened table
Reported MIC is given for each of the following compounds.

compound: CC1(C)S[C@@H]2[C@H](NC(=O)[C@H](N)c3ccccc3)C(=O)N2[C@H]1C(=O)O
MIC: 8 µg/mL

compound: CN(C)c1cc(NC(=O)CNC(C)(C)C)c(O)c2c1C[C@H]1C[C@H]3[C@H](N(C)C)C(O)=C(C(N)=O)C(=O)[C@@]3(O)C(O)=C1C2=O
MIC: ≤ 0.5 µg/mL

compound: C[C@@H](O)[C@H]1C(=O)N2C(C(=O)O)=C(SCCN=CN)C[C@H]12
MIC: ≤ 0.25 µg/mL

compound: CNC(C)C1CCC(N)C(OC2C(N)CC(N)C(OC3OCC(C)(O)C(NC)C3O)C2O)O1 (stereo not shown)
MIC: ≤ 1 µg/mL

###

Reported MIC is given for each of the following compounds.
Test system: E. coli
Test: Antibiogram of ESKAPE pathogens
Type: cell-based
Conditions: Escherichia coli; strain DSM8695; column assigned by order in flattened table

compound.structure: NC[C@H]1O[C@H](O[C@H]2[C@H](O)[C@@H](O[C@H]3O[C@H](CO)[C@@H](O)[C@H](N)[C@H]3O)[C@H](N)C[C@@H]2N)[C@H](N)C[C@@H]1O
test.system: E. coli
MIC: ≤ 1 µg/mL
//
compound.structure: CCN1CCN(C(=O)N[C@@H](C(=O)N[C@@H]2C(=O)N3[C@@H]2SC(C)(C)[C@@H]3C(=O)O)c2ccccc2)C(=O)C1=O
test.system: E. coli
MIC: ≤ 4 µg/mL
//
compound.structure: C[C@@H](O)[C@H]1C(=O)N2C(C(=O)O)=C(S[C@@H]3CN[C@H](C(=O)N(C)C)C3)[C@H](C)[C@H]12
test.system: E. coli
MIC: ≤ 0.25 µg/mL

Hello, the source for this data is paper PMC7794397, in case you need it.
